Field: Ki. Provide a value for each of the compounds that follow.
# EXPERIMENTAL SYSTEM: Adenosine receptor A1 (Homo sapiens)
# ASSAY COMMENT: Displacement of [125I]ABA from human recombinant adenosine A1 receptor by rapid filtration technique
Give bare numbers, in nM.

Known results for compounds:
SMILES: CNC(=O)[C@H]1O[C@@H](n2cnc3c(NC4CC(C)(C)NC(C)(C)C4)ncnc32)[C@H](O)[C@@H]1O
MEAS VALUE: 960
--
SMILES: CNC(=O)[C@H]1O[C@@H](n2cnc3c(Nc4ccc(CCNC(=O)c5cc(OC)c(OC)c(OC)c5)cc4)ncnc32)[C@H](O)[C@@H]1O
MEAS VALUE: 26.2
--
SMILES: CNC(=O)[C@H]1O[C@@H](n2cnc3c(NC4CC(C)(C)N([O])C(C)(C)C4)ncnc32)[C@H](O)[C@@H]1O
MEAS VALUE: 1890

Now look at this one.
Form: compound = "CNC(=O)[C@H]1O[C@@H](n2cnc3c(Nc4ccc5c(c4)C(C)(C)N([O])C5(C)C)ncnc32)[C@H](O)[C@@H]1O" ; Ki = 800

----------
# EXPERIMENTAL SYSTEM: Adenosine receptor A1 (Homo sapiens, UniProt P30542)
# Sequence (P30542 whole entry): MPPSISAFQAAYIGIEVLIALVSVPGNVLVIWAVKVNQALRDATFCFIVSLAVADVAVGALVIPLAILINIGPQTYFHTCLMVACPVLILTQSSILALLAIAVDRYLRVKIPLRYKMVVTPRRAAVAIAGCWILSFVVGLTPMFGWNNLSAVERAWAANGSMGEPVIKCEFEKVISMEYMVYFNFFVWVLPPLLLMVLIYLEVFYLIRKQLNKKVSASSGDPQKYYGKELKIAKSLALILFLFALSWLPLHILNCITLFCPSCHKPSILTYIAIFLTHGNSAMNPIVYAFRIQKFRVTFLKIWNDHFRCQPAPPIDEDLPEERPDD
# ASSAY COMMENT: Displacement of [125I]ABA from human recombinant adenosine A1 receptor by rapid filtration technique
MEASUREMENT TYPE: Ki

COMPOUND: CNC(=O)[C@H]1O[C@@H](n2cnc3c(Nc4ccc(CCNC(=O)c5ccc6c(c5)C(C)(C)N([O])C6(C)C)cc4)ncnc32)[C@H](O)[C@@H]1O
MEAS VALUE: 53.1 nM

Give one value of Ki per listed compound.
1. CC1(C)c2ccc(CNC3NC=Nc4c3ncn4[C@@H]3O[C@H](CO)[C@@H](O)[C@H]3O)cc2C(C)(C)N1[O] (stereo not given in full)
2. CNC(=O)[C@H]1O[C@@H](n2cnc3c(NCc4ccc(CNC(=O)c5cc(C(C)(C)C)cc(C(C)(C)C)c5)cc4)ncnc32)[C@H](O)[C@@H]1O
3. CNC(=O)[C@H]1O[C@@H](n2cnc3c(NCc4ccc(CNC(=O)c5cc(OC)c(OC)c(OC)c5)cc4)ncnc32)[C@H](O)[C@@H]1O
4. CC1(C)CC(NC2NC=Nc3c2ncn3[C@@H]2O[C@H](CO)[C@@H](O)[C@H]2O)CC(C)(C)N1[O] (stereo not given in full)

stdout:
1: 1140 nM; 2: 128 nM; 3: 76.8 nM; 4: 50 nM

----------
Assignment: determine reported Ratio Ki for the given compounds.
# EXPERIMENTAL SYSTEM: Adenosine receptors; A1 & A3 (Homo sapiens) (UniProt P30542+P0DMS8)
# ASSAY COMMENT: Selectivity ratio of Ki for human recombinant adenosine A1 receptor to Ki for human recombinant adenosine A3 receptor
Answers are plain numbers.

Each compound below has a reported value. Please supply its Ratio Ki.
1. CC1(C)CC(NC2NC=Nc3c2ncn3[C@@H]2O[C@H](CO)[C@@H](O)[C@H]2O)CC(C)(C)N1[O] (some centres undefined)
2. CNC(=O)[C@H]1O[C@@H](n2cnc3c(Nc4ccc5c(c4)C(C)(C)N([O])C5(C)C)ncnc32)[C@H](O)[C@@H]1O
3. CC(C)(C)c1cc(CCNc2ncnc3c2ncn3[C@@H]2O[C@H](CO)[C@@H](O)[C@H]2O)cc(C(C)(C)C)c1O
4. CNC(=O)[C@H]1O[C@@H](n2cnc3c(NCc4ccc(CNC(=O)c5cc(C(C)(C)C)cc(C(C)(C)C)c5)cc4)ncnc32)[C@H](O)[C@@H]1O
5. CNC(=O)[C@H]1O[C@@H](n2cnc3c(NCc4ccc(NC(=O)CCC(=O)NCCc5cc(C(C)(C)C)c(O)c(C(C)(C)C)c5)cc4)ncnc32)[C@H](O)[C@@H]1O
6. CC1(C)NC(C)(C)c2cc(Nc3ncnc4c3ncn4[C@@H]3O[C@H](CO)[C@@H](O)[C@H]3O)ccc21

stdout:
0.0058
1.5
5
14
19
1

Give measured Ratio Ki for every item shown.
1. CNC(=O)[C@H]1O[C@@H](n2cnc3c(Nc4ccc5c(c4)C(C)(C)NC5(C)C)ncnc32)[C@H](O)[C@@H]1O
2. CNC(=O)[C@H]1O[C@@H](n2cnc3c(Nc4ccc(CCNC(=O)c5cc(C(C)(C)C)c(O)c(C(C)(C)C)c5)cc4)ncnc32)[C@H](O)[C@@H]1O

stdout:
1. 16
2. 5.4

Give Ratio Ki for all compounds that follow.
1. CNC(=O)[C@H]1O[C@@H](n2cnc3c(NCC4CC(C)(C)N([O])C4(C)C)ncnc32)[C@H](O)[C@@H]1O (some centres undefined)
2. CNC(=O)[C@H]1O[C@@H](n2cnc3c(Nc4ccc(CCNC(=O)c5cc(OC)c(OC)c(OC)c5)cc4)ncnc32)[C@H](O)[C@@H]1O
3. CNC(=O)[C@H]1O[C@@H](n2cnc3c(NCCc4cc(C(C)(C)C)c(O)c(C(C)(C)C)c4)ncnc32)[C@H](O)[C@@H]1O

stdout:
0.56
6.2
69

----------
Kindly supply the reported pKi values for the records listed here.
# EXPERIMENTAL SYSTEM: UniProt:P29274
# Sequence (P29274 whole entry): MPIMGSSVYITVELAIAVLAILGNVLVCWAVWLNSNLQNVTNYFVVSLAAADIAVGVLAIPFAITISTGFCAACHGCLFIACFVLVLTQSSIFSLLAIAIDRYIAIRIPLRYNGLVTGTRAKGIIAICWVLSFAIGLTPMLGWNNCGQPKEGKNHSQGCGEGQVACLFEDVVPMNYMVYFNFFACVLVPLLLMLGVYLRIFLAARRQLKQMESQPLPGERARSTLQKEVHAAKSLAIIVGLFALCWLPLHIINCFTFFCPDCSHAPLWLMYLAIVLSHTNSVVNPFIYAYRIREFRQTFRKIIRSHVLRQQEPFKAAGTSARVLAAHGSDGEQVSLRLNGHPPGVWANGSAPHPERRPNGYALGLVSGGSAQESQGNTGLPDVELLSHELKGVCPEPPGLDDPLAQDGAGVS
# ASSAY COMMENT: Displacement of [3H]ZM241385 from human recombinant adenosine A2A receptor by rapid filtration technique
pKi: −log10 of the molar value.

Solved cases below.
SMILES: CNC(=O)[C@H]1O[C@@H](n2cnc3c(NC4CC(C)(C)N([O])C(C)(C)C4)ncnc32)[C@H](O)[C@@H]1O
EXPERIMENTAL SYSTEM: UniProt:P29274
MEAS VALUE: < 5.00

SMILES: CNC(=O)[C@H]1O[C@@H](n2cnc3c(NCc4ccc(CNC(=O)c5cc(OC)c(OC)c(OC)c5)cc4)ncnc32)[C@H](O)[C@@H]1O
EXPERIMENTAL SYSTEM: UniProt:P29274
MEAS VALUE: < 5.00

Now turn to the next compound.
Hey, UniProt:P29274 data for "CNC(=O)[C@H]1O[C@@H](n2cnc3c(NCc4ccc(NC(=O)CCC(=O)NCCc5cc(C(C)(C)C)c(O)c(C(C)(C)C)c5)cc4)ncnc32)[C@H](O)[C@@H]1O" : pKi came out at < 5.00

----------
# EXPERIMENTAL SYSTEM: Adenosine receptors; A1 & A3 (Homo sapiens) (UniProt P30542+P0DMS8)
# ASSAY COMMENT: Selectivity ratio of Ki for human recombinant adenosine A1 receptor to Ki for human recombinant adenosine A3 receptor
Decision: Ratio Ki >= 4 yields Y, all other cases yield N.

Illustrative cases are given below, each with its answer.
MOLECULE: CNC(=O)[C@H]1O[C@@H](n2cnc3c(NC4CC(C)(C)NC(C)(C)C4)ncnc32)[C@H](O)[C@@H]1O
CLASSIFICATION: N

MOLECULE: CNC(=O)[C@H]1O[C@@H](n2cnc3c(NCc4ccc(CNC(=O)c5cc(C(C)(C)C)c(O)c(C(C)(C)C)c5)cc4)ncnc32)[C@H](O)[C@@H]1O
CLASSIFICATION: Y

MOLECULE: CC1(C)CC(NC2NC=Nc3c2ncn3[C@@H]2O[C@H](CO)[C@@H](O)[C@H]2O)CC(C)(C)N1 (some centres not stated)
CLASSIFICATION: N

MOLECULE: CNC(=O)[C@H]1O[C@@H](n2cnc3c(NC4CC(C)(C)N([O])C(C)(C)C4)ncnc32)[C@H](O)[C@@H]1O
CLASSIFICATION: N

Shift focus to the following entry.
stdin: API: above_or_equal(metric=Ratio Ki, cutoff=4) for item "CNC(=O)[C@H]1O[C@@H](n2cnc3c(NCc4ccc(CNC(=O)c5cc(OC)c(OC)c(OC)c5)cc4)ncnc32)[C@H](O)[C@@H]1O"
stdout: Y

----------
Please respond with reported log10(Ki) for every item in the list.
# EXPERIMENTAL SYSTEM: Adenosine receptor A3 (Homo sapiens, UniProt P0DMS8)
# Sequence (P0DMS8 whole entry): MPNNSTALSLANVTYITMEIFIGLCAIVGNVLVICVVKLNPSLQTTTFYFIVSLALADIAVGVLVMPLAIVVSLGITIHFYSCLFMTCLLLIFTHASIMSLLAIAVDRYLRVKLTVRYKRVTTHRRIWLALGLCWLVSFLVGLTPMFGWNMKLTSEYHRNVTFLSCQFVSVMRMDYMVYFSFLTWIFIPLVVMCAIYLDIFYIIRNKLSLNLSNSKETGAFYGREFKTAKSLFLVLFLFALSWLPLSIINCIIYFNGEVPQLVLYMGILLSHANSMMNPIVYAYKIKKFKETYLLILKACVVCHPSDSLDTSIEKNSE
# ASSAY COMMENT: Displacement of [125I]ABA from human recombinant adenosine A3 receptor by rapid filtration technique
Scale: log10; quantity: Ki; unit before log: nM

List reported log10(Ki) for each of these molecules:
1. CC1(C)c2ccc(CNC3NC=Nc4c3ncn4[C@@H]3O[C@H](CO)[C@@H](O)[C@H]3O)cc2C(C)(C)N1[O] (some centres not stated)
2. CNC(=O)[C@H]1O[C@@H](n2cnc3c(NCc4ccc5c(c4)C(C)(C)N([O])C5(C)C)ncnc32)[C@H](O)[C@@H]1O
3. CNC(=O)[C@H]1O[C@@H](n2cnc3c(NC4CC(C)(C)N([O])C(C)(C)C4)ncnc32)[C@H](O)[C@@H]1O
4. CNC(=O)[C@H]1O[C@@H](n2cnc3c(NC4CC(C)(C)NC(C)(C)C4)ncnc32)[C@H](O)[C@@H]1O
5. CNC(=O)[C@H]1O[C@@H](n2cnc3c(Nc4ccc5c(c4)C(C)(C)NC5(C)C)ncnc32)[C@H](O)[C@@H]1O
6. CNC(=O)[C@H]1O[C@@H](n2cnc3c(NCC4CC(C)(C)N([O])C4(C)C)ncnc32)[C@H](O)[C@@H]1O (some centres not stated)

stdout:
1. 2.45
2. 2.51
3. 3.62
4. 3.39
5. 1.85
6. 3.01

Recorded log10(Ki) (molecule "CNC(=O)[C@H]1O[C@@H](n2cnc3c(Nc4ccc(CCNC(=O)c5cc(C(C)(C)C)cc(C(C)(C)C)c5)cc4)ncnc32)[C@H](O)[C@@H]1O" ): 0.35
